# assay.system: T1, hBCMA (human BCMA) (Homo sapiens, UniProt Q02223)
# T1 sequence (Q02223 1-184): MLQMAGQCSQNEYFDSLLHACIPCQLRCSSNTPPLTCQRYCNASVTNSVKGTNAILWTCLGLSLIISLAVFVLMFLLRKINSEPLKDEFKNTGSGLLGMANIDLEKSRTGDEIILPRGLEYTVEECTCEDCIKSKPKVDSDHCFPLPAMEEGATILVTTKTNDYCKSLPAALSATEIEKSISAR
# test.summary: Kinetics and affinity of hBCMA/human IgG interactions by SPR (Bio-Rad Proteon XPR36)
# Format: binding
# reported.conditions: human BCMA, 37° C.
experimental.endpoint: ka Human (M⁻¹ s⁻¹)
Write the number in M⁻¹ s⁻¹ without appending the unit.

Example results:
1. C01_Rd4_0.6 nM_C06: anti-BCMA antibody (antibody, V domains shown) VH: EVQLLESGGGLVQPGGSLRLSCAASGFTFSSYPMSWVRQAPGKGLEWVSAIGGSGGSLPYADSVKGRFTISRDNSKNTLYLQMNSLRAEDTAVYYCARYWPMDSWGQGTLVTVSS VL: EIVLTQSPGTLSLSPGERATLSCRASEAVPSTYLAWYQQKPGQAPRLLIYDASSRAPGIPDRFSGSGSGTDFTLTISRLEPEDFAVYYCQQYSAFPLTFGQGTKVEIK = 1.82e+07
2. COMBO_Rd4_6 nM_C08: anti-BCMA antibody (antibody, V domains shown) VH: EVQLLESGGGLVQPGGSLRLSCAASGFTFSSYPMSWVRQAPGKGLEWVSAIGGSGTWTYYADSVKGRFTISRDNSKNTLYLQMNSLRAEDTAVYYCARYWPMDSWGQGTLVTVSS VL: EIVLTQSPGTLSLSPGERATLSCRASQSVSSSYLAWYQQKPGQAPRLLMYDASIRATGIPDRFSGSGSGTDFTLTISRLEPEDFAVYYCQQYQKWPLTFGQGTKVEIK = 8.99e+06
3. COMBO_Rd4_6 nM_C10: anti-BCMA antibody (antibody, V domains shown) VH: EVQLLESGGGLVQPGGSLRLSCAASGFTFSSYPMSWVRQAPGKGLEWVSAIGGSGGSIHYADSVKGRFTISRDNSKNTLYLQMNSLRAEDTAVYYCARYWPMDSWGQGTLVTVSS VL: EIVLTQSPGTLSLSPGERATLSCRASQSVSSSYWGWYQQKPGQAPRLLMYDASIRATGIPDRFSGSGSGTDFTLTISRLEPEDFAVYYCQQYQCWPLTFGQGTKVEIK = 5.47e+06
4. C01_Rd4_0.6 nM_C03: anti-BCMA antibody (antibody, V domains shown) VH: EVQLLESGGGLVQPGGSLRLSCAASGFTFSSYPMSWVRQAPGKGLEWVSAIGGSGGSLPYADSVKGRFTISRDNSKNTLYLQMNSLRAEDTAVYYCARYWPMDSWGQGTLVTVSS VL: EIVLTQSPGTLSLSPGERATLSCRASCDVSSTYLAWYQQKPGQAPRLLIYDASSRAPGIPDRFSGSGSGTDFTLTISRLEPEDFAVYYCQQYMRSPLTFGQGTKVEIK = 1.55e+07

Now consider a different molecule.
# return recorded ka Human for input A02_Rd4_0.6 nM_C06: anti-BCMA antibody (antibody, V domains shown) VH: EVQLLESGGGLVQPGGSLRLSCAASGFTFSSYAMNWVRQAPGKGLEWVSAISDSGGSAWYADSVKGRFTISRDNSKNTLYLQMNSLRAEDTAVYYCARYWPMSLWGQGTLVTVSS VL: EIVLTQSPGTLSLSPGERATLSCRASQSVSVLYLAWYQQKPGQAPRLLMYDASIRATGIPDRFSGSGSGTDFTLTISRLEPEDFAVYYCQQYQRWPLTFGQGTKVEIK
3.49e+06
